- Tested on: platelets in platelet-rich plasma
- protocol description: γ-thrombin-induced platelet aggregation in platelet-rich plasma
- Assay type: cell-based, human
- run conditions: minimal concentration that blocked γ-thrombin-induced platelet aggregation in platelet-rich plasma
- Experimental: Fresh whole blood was collected and mixed with 0.013 M sodium citrate and platelet-rich plasma was prepared according to the method of Meloni et al., J. Biol. Chem. 266, 6786 (1991). Platelet-rich plasma with a normalized platelet count between 2–2.5×10^8 platelets/ml was added to a cuvette of an aggregometer (Chronlog Corp., Havertown, Pa.), standardized using the protocol of Meloni et al., supra. Peptides to be examined were added to the cuvette and the mixture stabilized for a few moments. […]
Square brackets hold non-standard residues; d marks the D form. Ends that are not written are not given here. Oic = O=C(O)[C@@H]1C[C@@H]2CCCC[C@@H]2N1; Igl = N[C@H](C(=O)O)C1Cc2ccccc2C1
Lab note: compare Concentration of Peptide [mM] That Gives 100% Inhibition against 0.1 mM. Equal or greater, write condition met. Smaller, write condition not met.

| substance | target | category |
| --- | --- | --- |
| β-Ala-Lys-2Lys-4(D-Arg-Oic-Pro-Gly-Phe) [MAP4-rOicPGF] | platelets in platelet-rich plasma | condition not met |
| D-Arg-Oic-Pro-Gly-Idg ([dR][Oic]PG[Igl]-NH2; N-terminus assumed; SMILES N=C(N)NCCC[C@@H](N)C(=O)N1[C@H](C(=O)N2CCC[C@H]2C(=O)NCC(=O)N[C@H](C(N)=O)C2Cc3ccccc3C2)C[C@@H]2CCCC[C@@H]21) [rOicPGIdg] | platelets in platelet-rich plasma | condition met |
| D-Arg-Oic-Oic-Gly-Idg [rOicOicGIdg] | platelets in platelet-rich plasma | condition met |
| D-Arg-Oic-Hyp-Gly-Idg [rOicHypGIdg] | platelets in platelet-rich plasma | condition met |
